Target: T1, full-length mature human CD97 (residues Q21-I845) with N-terminal aspartic acid/lysine epitope tag, … (human, UniProt P48960 21-835); note: test concentration or dose not given here
T1 sequence (looked up): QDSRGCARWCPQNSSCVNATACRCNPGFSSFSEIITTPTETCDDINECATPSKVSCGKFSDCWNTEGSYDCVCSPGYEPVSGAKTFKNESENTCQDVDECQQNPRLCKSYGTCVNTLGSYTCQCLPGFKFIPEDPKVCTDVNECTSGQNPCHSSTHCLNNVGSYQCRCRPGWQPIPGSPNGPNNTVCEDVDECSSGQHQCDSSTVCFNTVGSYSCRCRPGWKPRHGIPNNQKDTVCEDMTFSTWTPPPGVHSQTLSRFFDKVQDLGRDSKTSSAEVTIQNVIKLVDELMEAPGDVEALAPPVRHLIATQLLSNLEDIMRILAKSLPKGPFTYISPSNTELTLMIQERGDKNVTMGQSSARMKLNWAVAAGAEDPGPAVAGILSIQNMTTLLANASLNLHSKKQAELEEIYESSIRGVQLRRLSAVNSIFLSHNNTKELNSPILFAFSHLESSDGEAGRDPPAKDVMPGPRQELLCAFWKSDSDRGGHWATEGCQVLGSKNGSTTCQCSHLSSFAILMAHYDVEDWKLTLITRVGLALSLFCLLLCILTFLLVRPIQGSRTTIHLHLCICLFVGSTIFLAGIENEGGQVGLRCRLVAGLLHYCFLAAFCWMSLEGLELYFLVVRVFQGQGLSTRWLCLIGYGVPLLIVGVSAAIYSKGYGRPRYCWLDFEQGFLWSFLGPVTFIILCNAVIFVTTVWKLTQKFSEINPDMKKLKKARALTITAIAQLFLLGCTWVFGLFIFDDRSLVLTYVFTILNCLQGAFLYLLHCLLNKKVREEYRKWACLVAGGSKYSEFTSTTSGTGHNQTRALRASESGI
Experiment: cell-based or functional assay
The entries below are paired with their reported % live, FAB-saporin killing assay.
Your answer is read as %, so omit the unit and give the number.

Sample SC93.15 (antibody, IgG1, V domains shown) VH: EVQLQQSGPELVKPGASVKISCKGSGYTFTDYFMNWVKLSHGKSLEWIGEINPNNGGTNYNQKFKGKATLTVDKSSSIAYMELRSLTSEDSAVYYCARPGTNYWGPGTTLTVSS VL: DIVMTQSHKFMSTSVGDRVSITCKASQNVGTSVAWYQQKPGHSPKLLIYWASTRHTGVPDRFTGSGSGTDFSLTISSVQSEDLTDYFCQQYSSYPLTFGGGTKLEIK — what was its % live, FAB-saporin killing assay?
99.5

Next, consider the following binder.
Sample SC93.221 (antibody, IgG1, V domains shown, murine, IgG1) VH: QIQLVQSGSELKKPGETVKISCKASGYTFTDYSINWVKQAPGKGFKWMGWINTYTGVPTYADDFKGRFAFSLETSATTAYLQINNLKNEDTATYFCARARYDGYYGRFDYWGQGTTLTVSS VL: DFLMTQTPLSLPVSLGDQASISCRSSQSIVHSNGDTYLEWFLQKPGQSPKLLIYKVSNRFSGVPDRFSGSGSGTDFTLKISRVEAEDLGVYYCFQGSHVPFTFGSGTKLEIK — what was its % live, FAB-saporin killing assay?
99.1
